- measuredOn: TRAILR2 receptor on the surface of human tumor cells (human, UniProt O14763 56-440)
- assaySummary: cell-based or functional assay
readoutName: eff. (efficiency %), cytotoxic effect on Mia PaCa-2 cells
I only need the number, in %, no unit after it.

Known eff. (efficiency %), cytotoxic effect on Mia PaCa-2 cells results, listed for orientation:
[
  {
    "binder": "Zapadcine-3d (antibody, V domains shown, MMAE coupled through linker MC by thiol conventional coupling, non-cleavable; positions not given) VH: QVQLVQSGSELKKPGASVKVSCKASGYTFTDFSMNWVRQAPGQGLEWMGWINTETGEPTYADDFKGRFVFSLDTSVSTAYLQISSLKAEDTAVYYCARIDYWGQGTTVTVSS VL: DIVMTQSPLSLPVTPGEPASISCRSSQSLVHSNGNTYLHWYLQKPGQSPQLLIYKVSNRFSGVPDRFSGSGSGTDFTLKISRVEAEDVGVYYCFQSTHVPHTFGQGTKLEIKR",
    "result": 81.7
  },
  {
    "binder": "Zapadcine-3c (antibody, V domains shown, MMAE coupled through linker MC-VC-PAB by thiol conventional coupling, cleavable; positions not given) VH: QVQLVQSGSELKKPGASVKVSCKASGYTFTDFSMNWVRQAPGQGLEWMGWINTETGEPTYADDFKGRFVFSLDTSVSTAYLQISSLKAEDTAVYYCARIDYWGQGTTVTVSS VL: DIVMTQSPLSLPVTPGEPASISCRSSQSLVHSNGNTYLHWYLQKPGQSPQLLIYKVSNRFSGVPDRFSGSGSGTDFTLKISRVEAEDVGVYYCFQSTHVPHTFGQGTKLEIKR",
    "result": 86.3
  }
]

The record that follows has no eff. (efficiency %), cytotoxic effect on Mia PaCa-2 cells shown yet.
Req: Quick check: eff. (efficiency %), cytotoxic effect on Mia PaCa-2 cells of Zapadcine-3e (antibody, V domains shown, MMAF coupled through linker MC by thiol conventional coupling, non-cleavable; positions not given) VH: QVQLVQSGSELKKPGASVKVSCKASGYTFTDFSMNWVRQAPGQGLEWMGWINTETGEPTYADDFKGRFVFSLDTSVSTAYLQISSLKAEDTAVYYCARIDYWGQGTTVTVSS VL: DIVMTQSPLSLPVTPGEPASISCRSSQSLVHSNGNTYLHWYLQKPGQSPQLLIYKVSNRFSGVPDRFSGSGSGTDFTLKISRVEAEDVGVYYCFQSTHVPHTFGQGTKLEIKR ?
Resp: 53
